# test.system: SARS-CoV-2 spike receptor binding domain (RBD), wild type (SARS-CoV-2, UniProt P0DTC2 319-539)
# assay.protocol: ELISA, RBD protein coated, mAb titrated
For each of the binders below, state its EC50.
The reply should contain only the number, in ng/mL.

Sample C217 (antibody, V domains shown) VH: EVQLVESGGGLVKPGGSLRLSCAASGFTFSSYSMNWVRQAPGKGLEWVSFISSRSSYIYYADSVKGRFTISRDNAKNSLYLQMNSLRAEDTAVYYCARVQVGARGWVDYWGQGTLVTVSS VL: NFMLTQPHSVSESPGKTVTISCTRSSGSIASNYVQWYQQRPGSAPTTVIYEDNQRPSGVPDRFSGSIDSSSNSASLTISGLKTEDEADYYCQSYDSINWVFGGGTKLTVL ; EC50 observed: 2.28

Sample C559 (antibody, V domains shown) VH: EVQLVQSGAEVKKPGESLKISCKVSGYTFTNYWIGWVRQMPGKGLEWMGIIFPGDSDTRYSPSFQGQVTISADRSITTAYLQWRSLKASDTAMYYCARVPSSSDYGDYGGFEYWGQGTLVTVSS VL: DIQMTQSPSSLSASVGDRVTITCRASQTITIYLNWYQQKPGKAPKLLIYAASSLQSGVPSRFSGSGSGTDFTLTISSLQPEDFATYYCQQSYSTPCSFGQGTKLEIK ; EC50 observed: 2.89

Sample C542 (antibody, V domains shown) VH: EVQLVESGGGLVQPGGSLRLSCAASGLTVTSNYMSWVRQAPGRGLEWVSLIYPGGTTYYADSVKGRFTVSRDNSKNTLYLQMDSLRAEDTGVYYCARETLGRGGDCWGQGTLVTVSS VL: DIQMTQSPSSLSASVGDRVTITCQASQDISNFLNWYQQKPGKAPKLLIYDASNLETGVPSRFSGSRSGTDFTFTISSLQPDDIATYYCQQYDNLPRSFGQGTKLEIK ; EC50 observed: 1.07
